Measured values drawn from the RNAGym collection of RNA variant scans (doi:10.1021/acssynbio.7b00057) for this set.

Each entry below carries its recorded aptazyme ON/OFF ratio.
B1: Pistol ribozyme (parent)
chain: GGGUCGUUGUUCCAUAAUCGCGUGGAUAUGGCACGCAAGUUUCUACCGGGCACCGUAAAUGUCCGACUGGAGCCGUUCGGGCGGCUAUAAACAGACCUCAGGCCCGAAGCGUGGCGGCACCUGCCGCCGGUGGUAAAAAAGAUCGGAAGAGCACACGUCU

variants of: B1; experiment: aptazyme ON/OFF ratio, guanine; higher = stronger switching; co-transcriptional cleavage with and without guanine

Mutant Code | aptazyme ON/OFF ratio
U7G U8C G9U U10C U11C C12G C13U | 1.22
U7C U8C G9A U10C C12U | 2.28
U7C U8A U11A C12U C13G | 1.15
U8A G9A U10A U11A C12U C13U | 1.21
U7A U8G U10C U11A C12G C13U | 1.31
U7A G9U U10C C12U C13A | 1.14
U8G G9C U10A U11G C12U C13G | 1.1
G9A U10G C12A | 1.53
U7C U8C U11A C12U | 1.16
U7G G9C U10C U11A C13A | 1.24
U7A U8C G9A U10G U11C C12A C13A | 1.18
U7G U8A G9U U10C C12G | 1.52
U7A U8A G9A U10C U11A C12G | 1.1
U7G U8G G9A U10A U11A C12G C13A | 1.15
U7G U8C G9A U10A U11G | 1.87
U8A G9A U11A C12A C13U | 1.35
U7C U8A U10C U11A | 1.16
U7C G9A U10A C13A | 1.23
U10C U11A C12U | 1.45
U7G U8C G9U U10A C12U C13U | 1.16
U8G G9C U10A U11G C12A | 1.07
U7C U8A U11G C12U C13U | 1.37
G9A U10C U11C C12U | 1.06
U7C U8C G9C U11C C12U C13U | 1.11
U7G U8C G9U U10G U11A C12A C13G | 1.15
U7G U8A G9C U11G C12G C13G | 1.03
U7C U8G G9A U11A C13G | 1.07
U7G U8A G9U U10C U11G C12A C13U | 1.11
U7C U8C U11A C12U C13U | 1.37
U8C G9A U10G U11C C12G C13G | 1.28
U7A U8A G9C U10C U11A C12A C13U | 1.06
U7A U8G G9A U10C U11C C12U | 1.08
U7C U8G G9C U11G C12A C13A | 1.14
U7C U8C U11C C12U C13G | 1.2
U8A G9A U10A U11A C12G C13U | 1.16
U7C U8C G9A U10C U11A C13G | 1.04
U7A U8A G9U U10G U11C C12G | 1.2
U7C U11A C13A | 1.21
U7A U8A G9C C13G | 1.03
U8G G9A U10G U11C C12G C13A | 1.27
U7A G9C U10G U11C C12A C13A | 1.05
U7G G9U U10G C12A | 1.7
U7G U8C U11A C12U | 1.31
U7G G9A U10A U11G C12U C13U | 1.11
U8C G9U U10C C12U C13U | 1.16
U8A G9A U10G U11G C12A C13A | 1.12
U7G U8G G9U U10A U11C C12G C13U | 1.14
U7C U8G G9A U10C U11A C12A C13U | 1.07
G9A U10G U11G C12A C13U | 1.25
U7G U8A G9U U10A U11A | 1.46
U7A U8G G9C U10C C12U C13G | 1.17
U7G U8G U11A C12G C13G | 1.15
U7G U8C G9A U11C C12G C13G | 1.05
U8C U10G U11C C13U | 1.04
U7C U8C U11A C12A C13U | 1.31
U7A U10A U11C C12U C13U | 1.04
U7A U8A G9U U10G U11A C12G C13A | 1.18
U7G U8A G9A U10A U11G C13U | 1.16
U8G U10A U11C C12U | 1.03
U7G U8A G9U U10C U11A C13A | 1.1
U7A G9U U10G C12G | 1.13
U7G G9U U10C U11C C12A C13A | 1.37
U7G U8G G9C U10A U11C C12A C13G | 1.06
U7G U8A G9C U10G U11A C12G | 1.06
U7A U8G G9C U10G U11G C13G | 1.21
U7G U8C G9A U11C | 1.4
U7C U8G G9U U10A C12A C13A | 1.15
U7A U8C G9C U11G C13G | 1.13
U7G U8C G9U U11C C12G | 1.37
U8C G9C U10C U11C C12A C13G | 1.04
